# assayProtocol: NCI Yeast Anticancer Drug Screen. Data for the rad52 strain (AID 147);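 also: 0% = growth of vehicle-treated control cultures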
# assaySetup: S. cerevisiae rad52 mutant growth inhibition; at 1.2 µM; active compounds read high
This is part of a sample that, as a whole, favours compounds with a hit. Of some 79,000 tested, about 15% had one in any assay.
recordedMetric: growth inhibition (%)
Numbers only, in %.

Known growth inhibition results, listed for orientation:
compound | growth inhibition / %
O=C1c2cccc3cc([N+](=O)[O-])cc(c23)C(=O)N1CCN1CCCC1 | 33
COc1ccc(N2C(=O)CC(Cl)C2=O)cc1 (stereo unspecified) | -10
Nc1cc(S(N)(=O)=O)ccc1SSc1ccc(S(N)(=O)=O)cc1N | 1
N#CSC1CCCCNC1=O (stereo unspecified) | 2
Cc1c(-c2ccccc2)[nH]c2ccccc12 | -7

As a next step, examine the compound that follows.
Fill blank: measured growth inhibition of the compound S=c1nc(Cl)cc2[nH]c(Cl)cn12 is ____. 2

Where do these numbers come from? They come from PubChem BioAssay (NCI).
